# protocolDetails: Quantitative High-Throughput drug screen in 47 multiple myeloma cell lines against the NCATS MIPE library collection: KMS28PE_JCRB cell viability assay (AID 1918983); note: nearly all actives have a fitted effect of over 35% in size; note: potency is the fitted concentration of half-maximal effect
# measurementConditions: KMS28PE multiple myeloma viability, CellTiter-Glo ATP, 48 h; series mostly up to 45.8 µM
Records with an inconclusive call do not appear. Activity calls are given as the source filed them. Calls come from the whole dose curve; as a rule, active = well fitted cell-killing curve with a large enough effect; inconclusive = small, poorly fitted or top-dose-only effect, or effect the other way; inactive = no such curve, though single readings can be large or run the other way.
measure: Potency

Use the examples below as a reference point.
compound="N=c1c2c(-c3ccccc3)c(-c3ccccc3)n(Cc3ccccc3)c2ncn1C1CCC(O)CC1 (stereo not given)" reported="11.8 µM (active)"
compound="C#CC1(O)CCC2C3CCC4=CC(=O)CCC4(C)C3CCC21C (stereo not given)" reported="20.9 µM (active)"
compound="COc1ccc2c(c1)[C@]13CCCCC1C(C2)N(C)CC3 (stereo not given in full)" reported=inactive
compound=CSCC[C@@H](NC(=O)[C@@H](Cc1ccccc1)NC(=O)CNC(=O)CNC(=O)[C@@H](N)Cc1ccc(O)cc1)C(=O)O reported=inactive
compound=C[C@]12CC[C@H]3[C@@H](CCC4=CC(=O)CC[C@@]43C)[C@H]1CC[C@H]2OC(=O)CCC1CCCC1 reported=inactive

Field request: Potency | item: C[C@]12COC(=O)C[C@@H]1CC[C@@H]1[C@H]2CC[C@@]2(C)[C@H]1CC[C@]2(C)O
inactive

Field request: Potency | item: C=C[C@@H]1CN2CCC1C[C@H]2[C@H](O)c1ccnc2ccccc12 (stereo not given in full)
14.8 µM (active)

Field request: Potency | item: C1=C2CCCN[C@H]2[C@@H]2C[C@H]1[C@@H]1CCCCN1C2
inactive

Field request: Potency | item: CC(C)(O)C(=O)Nc1ccc([N+](=O)[O-])c(C(F)(F)F)c1
inactive

Field request: Potency | item: COc1cc([C@@H]2c3cc4c(cc3[C@@H](O)C3COC(=O)C32)OCO4)cc(OC)c1O (stereo not given in full)
0.0418 µM (active)
